system: 616215-338-R-J1-PDC complex spheroid viability; assay: Anticancer human tumor 616215-338-R-J1-PDC patient-derived colon adenocarcinoma cell line growth inhibition [POLQ]; settings: curve of first compound; second compound 0.1 µM;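 note: spheroids exposed to compounds for one week before readout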
# Lookup of reported IC50 keyed by entry
Quantity: IC50

1) CCc1cc2c(N3CCc4c(cc(Cn5ccnc5)cc4-c4cn(C)nc4C(F)(F)F)C3=O)cc(C)nc2c(OC)n1 + Cc1cccc(N(C)C(=O)C2C(O)CCN2c2nc(C)cc(C(F)(F)F)c2C#N)c1; 2.24 µM
2) CCCS(=O)(=O)Nc1ccc(F)c(C(=O)c2c[nH]c3ncc(-c4ccc(Cl)cc4)cc23)c1F + Nc1ccc(C#CCN(C(=O)Cc2ncc(C(F)(F)F)cc2C(F)(F)F)c2ccc(F)cc2)nn1; 6.1 µM
3) Cn1ncnc1[C@H]1c2n[nH]c(=O)c3cc(F)cc(c23)N[C@@H]1c1ccc(F)cc1 + Nc1ccc(C#CCN(C(=O)Cc2ncc(C(F)(F)F)cc2C(F)(F)F)c2ccc(F)cc2)nn1; > 0.1 µM
4) CC(C)n1c(=O)n(C)c2cnc3cc(F)c(-c4ccc(OCCCN5CCCCC5)nc4)cc3c21 + COC1C(OC(N)=O)C(O)C(Oc2ccc3c(O)c(NC(=O)c4ccc(O)c(CC=C(C)C)c4)c(=O)oc3c2C)OC1(C)C; > 10 µM
5) COc1cccc(OCCCN)c1-c1cc(Nc2cnc(C#N)cn2)n[nH]1 + Cc1cccc(N(C)C(=O)C2C(O)CCN2c2nc(C)cc(C(F)(F)F)c2C#N)c1; 0.0622 µM

These entries and their values trace back to PubChem BioAssay AID1963843.
